Biological target: T1, extracellular domain of mouse IL12RB1 (mIL12Rb1 ECD) (mouse, UniProt Q60837 20-565)
T1 construct: The immunogen was a fusion of the ECD with the human IgG1 hinge and Fc; also called mIL12Rb1 ECD antigen
T1 sequence: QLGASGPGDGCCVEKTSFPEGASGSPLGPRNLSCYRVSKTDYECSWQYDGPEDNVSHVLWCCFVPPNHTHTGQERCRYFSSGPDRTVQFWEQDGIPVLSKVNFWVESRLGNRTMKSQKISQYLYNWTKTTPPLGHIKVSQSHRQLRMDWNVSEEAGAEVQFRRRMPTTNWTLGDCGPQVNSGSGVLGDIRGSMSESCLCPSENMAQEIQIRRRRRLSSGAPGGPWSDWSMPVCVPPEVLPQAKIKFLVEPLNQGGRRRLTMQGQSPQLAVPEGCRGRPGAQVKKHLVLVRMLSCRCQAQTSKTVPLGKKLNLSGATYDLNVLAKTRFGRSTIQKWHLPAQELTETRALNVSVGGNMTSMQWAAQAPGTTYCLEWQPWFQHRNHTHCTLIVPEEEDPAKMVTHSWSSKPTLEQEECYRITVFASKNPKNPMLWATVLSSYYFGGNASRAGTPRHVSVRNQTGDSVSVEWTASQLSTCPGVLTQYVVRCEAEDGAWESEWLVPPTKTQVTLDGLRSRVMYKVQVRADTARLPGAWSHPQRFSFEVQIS
Assay: periplasmic extract ELISA (PE-ELISA) of phage clones, colorimetric
OBSERVABLE: binding result

BINDER | DATA VALUE
mIL12Rb1_VHH9 (VHH, Phagemid clone with his-tag, periplasmic extract) VHH: QVQLQESGGGSVQAGGSLRLSCVASGYGYCGYDMSWYRQAPGKEREFVALITSDRSISYEDSVKARFIISRDNAANTGYLDMTRLTPDDTAIYYCKTSAAARESSWCRSRYRVASWGQGTQVTVSS | binds
mIL12Rb1_VHH13 (VHH, Phagemid clone with his-tag, periplasmic extract) VHH: QVQLQESGGGSVQAGGSLRLSCVASGYSYCGYDMMWYRQAPGKEREFVALITSDYSIRYEDSVEGRFSISRDNAKNTGYLLMSNLTPADTAIYYCKTSTAARESGWCRSRYRVASWGQGTQVTVSS | binds
